Values compiled from the supplement of paper PMC11061612.

# Tested on: SNU-387 (Hepatocellular Carcinoma)
# assayExplanation: combination Emax (second highest fraction inhibited in the dose matrix, 72 h); higher = more inhibition; extreme values may be limits of the assay
# label = label 1 if combination Emax >= 0.4 else label 0

[[record]]
compound = "COc1nnc2ccc(N3CCC(c4ccc(OCCN5CCN(C)C(=O)[C@H]5C)cc4)CC3)nn12 [AZD5153] + C=CCn1c(=O)c2cnc(Nc3ccc(N4CCN(C)CC4)cc3)nc2n1-c1cccc(C(C)(C)O)n1 [AZD1775] (first compound max 1 µM, partner max 1 µM)"
labelclass = "label 1"

[[record]]
compound = "COc1cccc2c1C(=O)c1c(O)c3c(c(O)c1C2=O)C[C@@](O)(C(=O)CO)C[C@@H]3O[C@H]1C[C@H](N)[C@H](O)[C@H](C)O1 [Doxorubicin] + Cc1cc2ncnn2cc1Nc1ncc2c(n1)n(C1CCOCC1)c(=O)n2C [AZD7648] (first compound max 1 µM, 7x7, partner max 10 µM)"
labelclass = "label 1"

[[record]]
compound = "CC1(C)CCC(CN2CCN(c3ccc(C(=O)NS(=O)(=O)c4ccc(NCC5CCOCC5)c([N+](=O)[O-])c4)c(Oc4cnc5[nH]ccc5c4)c3)CC2)=C(c2ccc(Cl)cc2)C1 [Venetoclax] + C=CCn1c(=O)c2cnc(Nc3ccc(N4CCN(C)CC4)cc3)nc2n1-c1cccc(C(C)(C)O)n1 [AZD1775] (first compound max 1 µM, partner max 1 µM)"
labelclass = "label 1"

[[record]]
compound = "CN(CCO)CC[C@H](CSc1ccccc1)Nc1ccc(S(=O)(=O)NC(=O)c2ccc(N3CCC([C@@H](O)c4ccccc4-c4ccc(Cl)cc4)CC3)cc2)cc1S(=O)(=O)C(F)(F)F [AZD4320] + C[C@@H](Nc1cc(F)cc(F)c1)c1cc(C(=O)N(C)C)cc2c(=O)cc(N3CCOCC3)oc12 [AZD8186] (first compound max 1 µM, 7x7, partner max 3 µM)"
labelclass = "label 1"

[[record]]
compound = "Cc1cc2ncnn2cc1Nc1ncc2c(n1)n(C1CCOCC1)c(=O)n2C [AZD7648] + C=CCn1c(=O)c2cnc(Nc3ccc(N4CCN(C)CC4)cc3)nc2n1-c1cccc(C(C)(C)O)n1 [AZD1775] (first compound max 10 µM, partner max 1 µM)"
labelclass = "label 0"

[[record]]
compound = "C[C@@H](c1ccc2nccn2c1)n1nnc2ncc(-c3cnn(C)c3)nc21 [Savolitinib] + Cc1c2c(nn1C)CSCc1cc(n(C)n1)CSc1cc(c3ccccc3c1)OCCCc1c(C(=O)O)n(C)c3c-2c(Cl)ccc13 [AZD5991] (first compound max 1 µM, 7x7, partner max 1 µM)"
labelclass = "label 0"

[[record]]
compound = "C[C@@H](Nc1cc(F)cc(F)c1)c1cc(C(=O)N(C)C)cc2c(=O)cc(N3CCOCC3)oc12 [AZD8186] + CC(=O)c1c(C)c2cnc(Nc3ccc(N4CCNCC4)cn3)nc2n(C2CCCC2)c1=O [Palbociclib] (first compound max 10 µM, 7x7, partner max 10 µM)"
labelclass = "label 1"


====

# System: KMRC-1 (Kidney Carcinoma)
# assayExplanation: combination Emax (second highest fraction inhibited in the dose matrix, 72 h); higher = more inhibition; extreme values may be limits of the assay
endpointLabel: combination Emax

[[record]]
molecule = "COc1cccc(OCCCN)c1-c1cc(Nc2cnc(C#N)cn2)n[nH]1 [Prexasertib] + C[C@@H]1COCCN1C2=NC(=NC(=C2)C3(CC3)[S@](=N)(=O)C)C4=C5C=CNC5=NC=C4 [AZD6738] (first compound max 1 µM, 7x7, partner max 10 µM)"
endpointlabel = "combination Emax"
resultnumber = 0.555

[[record]]
molecule = "C=CCn1c(=O)c2cnc(Nc3ccc(N4CCN(C)CC4)cc3)nc2n1-c1cccc(C(C)(C)O)n1 [AZD1775] + O=C(c1cc(Cc2n[nH]c(=O)c3ccccc23)ccc1F)N1CCN(C(=O)C2CC2)CC1 [Olaparib] (first compound max 1 µM, partner max 10 µM)"
endpointlabel = "combination Emax"
resultnumber = 0.279

[[record]]
molecule = "CC1(C)CCC(CN2CCN(c3ccc(C(=O)NS(=O)(=O)c4ccc(NCC5CCOCC5)c([N+](=O)[O-])c4)c(Oc4cnc5[nH]ccc5c4)c3)CC2)=C(c2ccc(Cl)cc2)C1 [Venetoclax] + C[C@@H](Nc1cc(F)cc(F)c1)c1cc(C(=O)N(C)C)cc2c(=O)cc(N3CCOCC3)oc12 [AZD8186] (first compound max 1 µM, 7x7, partner max 3 µM)"
endpointlabel = "combination Emax"
resultnumber = 0.532

[[record]]
molecule = "Cc1c2c(nn1C)CSCc1cc(n(C)n1)CSc1cc(c3ccccc3c1)OCCCc1c(C(=O)O)n(C)c3c-2c(Cl)ccc13 [AZD5991] + C1CN(CCC1(C(=O)N[C@@H](CCO)C2=CC=C(C=C2)Cl)N)C3=NC=NC4=C3C=CN4 [Capivasertib] (first compound max 1 µM, 7x7, partner max 3 µM)"
endpointlabel = "combination Emax"
resultnumber = 0.432

